target: MRP4 (Homo sapiens, UniProt O15439); assay: in vitro; settings: human
Sequence (O15439 whole entry): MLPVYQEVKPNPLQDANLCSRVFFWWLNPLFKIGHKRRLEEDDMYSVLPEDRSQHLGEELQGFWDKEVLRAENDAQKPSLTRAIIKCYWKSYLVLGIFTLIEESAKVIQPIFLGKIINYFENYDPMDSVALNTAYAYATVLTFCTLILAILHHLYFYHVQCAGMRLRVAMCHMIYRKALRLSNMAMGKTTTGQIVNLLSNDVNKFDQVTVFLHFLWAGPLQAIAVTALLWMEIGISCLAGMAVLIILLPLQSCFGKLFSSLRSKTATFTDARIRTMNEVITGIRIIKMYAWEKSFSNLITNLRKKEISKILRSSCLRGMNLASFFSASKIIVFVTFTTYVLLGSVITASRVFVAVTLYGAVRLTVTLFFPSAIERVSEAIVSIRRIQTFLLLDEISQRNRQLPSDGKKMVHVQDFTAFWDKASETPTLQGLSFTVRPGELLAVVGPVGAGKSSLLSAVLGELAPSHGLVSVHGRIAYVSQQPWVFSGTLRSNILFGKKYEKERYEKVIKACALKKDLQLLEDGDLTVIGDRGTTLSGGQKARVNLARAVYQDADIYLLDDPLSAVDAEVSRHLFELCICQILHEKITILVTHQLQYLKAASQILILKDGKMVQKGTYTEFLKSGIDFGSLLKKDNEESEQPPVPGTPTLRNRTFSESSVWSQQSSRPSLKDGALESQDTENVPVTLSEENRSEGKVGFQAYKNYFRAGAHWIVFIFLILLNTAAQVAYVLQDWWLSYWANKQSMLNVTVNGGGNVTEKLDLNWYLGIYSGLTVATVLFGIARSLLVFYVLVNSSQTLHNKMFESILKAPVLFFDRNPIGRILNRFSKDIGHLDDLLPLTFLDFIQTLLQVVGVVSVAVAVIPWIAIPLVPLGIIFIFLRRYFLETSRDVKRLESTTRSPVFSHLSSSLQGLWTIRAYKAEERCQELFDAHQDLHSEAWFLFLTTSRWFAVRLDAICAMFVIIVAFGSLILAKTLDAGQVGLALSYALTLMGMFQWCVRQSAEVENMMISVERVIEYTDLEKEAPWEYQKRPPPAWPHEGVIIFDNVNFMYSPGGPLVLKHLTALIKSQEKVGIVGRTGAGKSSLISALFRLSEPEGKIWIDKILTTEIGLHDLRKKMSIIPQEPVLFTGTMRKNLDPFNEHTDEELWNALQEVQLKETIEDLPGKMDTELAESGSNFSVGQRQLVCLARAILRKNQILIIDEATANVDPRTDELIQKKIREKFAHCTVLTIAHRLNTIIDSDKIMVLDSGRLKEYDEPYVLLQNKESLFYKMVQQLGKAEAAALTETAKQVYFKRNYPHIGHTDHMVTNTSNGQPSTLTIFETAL
attribute.measured: activity at 3 min, 20 µM (%)
Report only the number, with the unit % understood.

Report measured activity at 3 min, 20 µM; entry is CN(C)C(=O)CCSC(SCCC(=O)O)c1cccc(/C=C/c2ccc3ccc(Cl)cc3n2)c1 (stereo not shown)
29

====

Target: BCRP (Homo sapiens, UniProt Q9UNQ0)
Sequence (Q9UNQ0 1-655): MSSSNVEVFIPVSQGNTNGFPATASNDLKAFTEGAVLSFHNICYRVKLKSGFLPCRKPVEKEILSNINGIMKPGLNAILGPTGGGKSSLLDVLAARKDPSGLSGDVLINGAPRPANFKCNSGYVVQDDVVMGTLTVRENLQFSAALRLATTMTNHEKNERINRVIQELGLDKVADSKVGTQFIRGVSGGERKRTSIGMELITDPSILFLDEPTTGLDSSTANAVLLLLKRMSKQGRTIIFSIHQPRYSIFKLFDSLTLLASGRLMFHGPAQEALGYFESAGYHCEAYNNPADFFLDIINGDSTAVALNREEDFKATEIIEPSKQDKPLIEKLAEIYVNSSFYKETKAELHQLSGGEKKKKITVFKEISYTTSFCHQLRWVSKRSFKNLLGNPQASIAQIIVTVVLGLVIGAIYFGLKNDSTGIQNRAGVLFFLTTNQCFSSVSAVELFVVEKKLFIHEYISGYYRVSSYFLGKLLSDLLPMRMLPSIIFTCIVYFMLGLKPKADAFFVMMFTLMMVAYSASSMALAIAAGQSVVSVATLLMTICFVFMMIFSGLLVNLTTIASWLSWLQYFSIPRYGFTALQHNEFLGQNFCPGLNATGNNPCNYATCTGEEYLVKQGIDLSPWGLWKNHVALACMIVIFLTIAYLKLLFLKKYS
Test: Bi-directional transport across MDCKII BCRP and WT/EV cell monolayers
Settings: dog, pH 7.4
attribute.measured: efflux ratio at 90 min, 0.5 μM

Tell me efflux ratio at 90 min, 0.5 μM of `Cc1cc(C)c(Nc2ccnc(Nc3ccc(C#N)cc3)n2)c(C)c1` when tested on BCRP (Homo sapiens, UniProt Q9UNQ0).
1.33

====

target: P-gp (Homo sapiens, UniProt P08183); construct: expressed in transfected cells; host or cells: MDCKII (Madin-Darby canine kidney) cells, provided by Dr. Philip E. Empey; assay: Bi-directional transport across MDCKII P-gp and WT cell monolayers; assay type: in vitro ADME; conditions: dog, MDCK-MDR1, pH 7.4; 0.5 μM DPV; read-out: Net flux ratio (ER MDCKII P-gp / ER MDCKII WT)
Sequence (P08183 whole entry): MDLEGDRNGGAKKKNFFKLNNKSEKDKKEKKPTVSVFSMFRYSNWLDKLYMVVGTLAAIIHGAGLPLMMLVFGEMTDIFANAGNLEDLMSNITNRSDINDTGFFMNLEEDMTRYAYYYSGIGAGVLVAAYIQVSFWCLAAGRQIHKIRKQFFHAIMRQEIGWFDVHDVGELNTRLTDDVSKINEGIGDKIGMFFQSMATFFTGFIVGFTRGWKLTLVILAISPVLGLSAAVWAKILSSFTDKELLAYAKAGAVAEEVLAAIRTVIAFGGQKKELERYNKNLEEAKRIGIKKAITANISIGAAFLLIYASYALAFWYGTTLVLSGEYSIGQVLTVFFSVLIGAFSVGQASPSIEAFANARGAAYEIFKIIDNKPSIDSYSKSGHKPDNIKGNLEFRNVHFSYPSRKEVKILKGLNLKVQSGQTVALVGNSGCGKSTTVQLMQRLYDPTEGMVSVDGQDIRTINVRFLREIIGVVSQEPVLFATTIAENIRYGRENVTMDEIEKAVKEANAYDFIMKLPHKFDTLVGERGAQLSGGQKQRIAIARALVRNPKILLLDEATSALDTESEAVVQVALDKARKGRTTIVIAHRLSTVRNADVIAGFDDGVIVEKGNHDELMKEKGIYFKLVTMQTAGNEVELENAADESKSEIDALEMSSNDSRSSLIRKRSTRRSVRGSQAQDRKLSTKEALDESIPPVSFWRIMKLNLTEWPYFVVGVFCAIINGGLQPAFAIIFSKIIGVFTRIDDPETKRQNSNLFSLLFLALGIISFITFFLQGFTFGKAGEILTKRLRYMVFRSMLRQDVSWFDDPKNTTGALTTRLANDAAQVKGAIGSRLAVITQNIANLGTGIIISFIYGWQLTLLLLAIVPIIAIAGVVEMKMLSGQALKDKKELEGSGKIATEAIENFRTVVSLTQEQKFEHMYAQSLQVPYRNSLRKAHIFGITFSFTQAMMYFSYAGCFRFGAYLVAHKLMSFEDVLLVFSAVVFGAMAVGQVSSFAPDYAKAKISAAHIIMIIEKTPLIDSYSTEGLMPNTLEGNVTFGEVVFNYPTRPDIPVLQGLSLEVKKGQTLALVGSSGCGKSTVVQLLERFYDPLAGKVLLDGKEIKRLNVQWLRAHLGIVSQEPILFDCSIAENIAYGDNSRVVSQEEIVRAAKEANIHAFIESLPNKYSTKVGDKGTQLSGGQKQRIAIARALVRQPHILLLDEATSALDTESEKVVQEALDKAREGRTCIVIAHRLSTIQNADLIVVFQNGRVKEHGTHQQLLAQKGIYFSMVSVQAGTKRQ
attribute.measured: efflux ratio at 90 min, 0.5 μM

Name the recorded efflux ratio at 90 min, 0.5 μM of the molecule listed here: `Cc1cc(C)c(Nc2ccnc(Nc3ccc(C#N)cc3)n2)c(C)c1`
1.31

Source of measurements: paper PMC9501983
